# target: T1, HLA-A*02:01 (peptide-receptive MHC class I monomer after UV cleavage of the UV-sensitive ligand) (human)
# T1 construct: MHC monomers loaded by UV-ligand exchange and captured on streptavidin plates
# assay: UV ligand-exchange ELISA; exchange yield grade (+ >=10%, ++ >=20%, +++ >=50%, ++++ >=75%)
measured property: peptide exchange yield

As a guide, the following entries are already answered.
binder	test result
VLLDYVGNVQL [VLLDYVGNVQL (SEQ ID NO: 71)]	≥ 75%
VILDSVASV [VILDSVASV (SEQ ID NO: 173)]	≥ 75%

Query: peptide exchange yield; subject: VLIEETDQL [VLIEETDQL (SEQ ID NO: 131)]
20 to 50%

Same for SLDLRPLEV [SLDLRPLEV (SEQ ID NO: 74)]
≥ 75%

Same for LLSEETPSA [LLSEETPSA (SEQ ID NO: 2)]
50 to 75%

Same for KLMTSLVKV [KLMTSLVKV (SEQ ID NO: 155)]
50 to 75%

Same for GLVGLLEQA [GLVGLLEQA (SEQ ID NO: 207)]
≥ 75%
